# TGT: Ba/F3 cells co-expressing full length rTrkA and mNGF (Rattus norvegicus)
# Construct: co-expressing full length rTrkA and mNGF
# EXPERIMENT: Ba/F3 cell proliferation, BaF3/TRKA-NGF
# CONDITION DETAILS: inhibition of proliferation, 48 hours, Bright-Glo luminescence
pIC50: −log10 of the molar value.
ATTRIBUTE MEASURED: pIC50

| COMPOUND | pIC50 |
| --- | --- |
| N#Cc1cc(F)cc([C@H]2C[C@H](F)CN2c2ccn3ncc(C(N)=O)c3c2)c1 | 8.10 |

(A) NC(=O)Nc1cnn2ccc(N3C[C@@H](F)C[C@@H]3c3cccc(F)c3)cc12
(B) CN(C)C(=O)c1cnn2ccc(N3C[C@@H](F)C[C@@H]3c3cccc(F)c3)cc12
Task item: Please choose the item with the lower pIC50 value from this pair: A and B The response must carry the label of the picked entry.
Reply: A
(A: 6.75, B: 7.37)

---

# TGT: Ba/F3 cells co-expressing full length rTrkA and mNGF (Rattus norvegicus)
# Construct: co-expressing full length rTrkA and mNGF
# EXPERIMENT: Ba/F3 cell proliferation, BaF3/TRKA-NGF
# CONDITION DETAILS: inhibition of proliferation, 48 hours, Bright-Glo luminescence
pIC50: −log10 of the molar value.
ATTRIBUTE MEASURED: pIC50

| COMPOUND | pIC50 |
| --- | --- |
| O=C(NCCO)c1cnn2ccc(N3C[C@@H](F)C[C@@H]3c3cccc(F)c3)cc12 | 7.85 |

(1) CCOC(=O)c1cnn2ccc(N3C[C@@H](C#N)C[C@@H]3c3cccc(F)c3)cc12
(2) NC(=O)c1cnn2ccc(N3CC(F)(F)C[C@@H]3c3cccc(F)c3)cc12
Task item: Please choose the item with the lower pIC50 value from this pair: 1 and 2 The response must carry the label of the picked entry.
Reply: 2

(P) CC(C)(C)NC(=O)c1cnn2ccc(N3C[C@@H](F)C[C@@H]3c3cccc(F)c3)cc12
(Q) CCOC(=O)c1cnn2ccc(N3C[C@@H](F)C[C@@H]3c3cc(F)cc(C#N)c3)cc12
Task item: Which of the two gives a bigger number for pIC50: P or Q ? The response must carry the label of the picked entry.
Reply: Q

(I) CCNC(=O)c1cnn2ccc(N3C[C@@H](F)C[C@@H]3c3cccc(F)c3)cc12
(II) CCOC(=O)c1cnn2ccc(N3CC(F)(F)C[C@@H]3c3cc(F)cc(C#N)c3)cc12
Task item: Please choose the item with the lower pIC50 value from this pair: I and II The response must carry the label of the picked entry.
Reply: II

(I) N#Cc1cc(F)cc([C@H]2CC(F)(F)CN2c2ccn3ncc(C(N)=O)c3c2)c1
(II) NC(=O)c1cnn2ccc(N3C[C@H](O)C[C@@H]3c3cccc(F)c3)cc12
Task item: Which of the two gives a bigger number for pIC50: I or II ? The response must carry the label of the picked entry.
Reply: I
(I: 7.62, II: 6.92)

---

# TGT: Ba/F3 cells co-expressing full length rTrkA and mNGF (Rattus norvegicus)
# Construct: co-expressing full length rTrkA and mNGF
# EXPERIMENT: Ba/F3 cell proliferation, BaF3/TRKA-NGF
# CONDITION DETAILS: inhibition of proliferation, 48 hours, Bright-Glo luminescence
ATTRIBUTE MEASURED: IC50 (nM)

| COMPOUND | UOM | OBS VALUE |
| --- | --- | --- |
| CCOC(=O)c1cnn2ccc(N3CC(F)(F)C[C@@H]3c3cccc(F)c3)cc12 | nM | 3 |
| O=C(Nc1cnn2ccc(N3C[C@@H](F)C[C@@H]3c3cccc(F)c3)cc12)OCc1ccccc1 | nM | 179 |

(a) O=C(Nc1ccccc1)c1cnn2ccc(N3C[C@@H](F)C[C@@H]3c3cccc(F)c3)cc12
(b) CCOC(=O)c1cnn2ccc(N3C[C@@H](C(N)=O)C[C@@H]3c3cccc(F)c3)cc12
Task item: Please choose the item with the lower IC50 value from this pair: a and b The response must carry the label of the picked entry.
Reply: b
(b: 2 nM, a: 17 nM)

(I) Cc1ccc(C)c(C2CCCN2c2ccn3ncc(C(N)=O)c3c2)c1 (centres unmarked)
(II) NC(=O)c1cnn2ccc(N3C[C@@H](F)C[C@@H]3c3cccc(F)c3)cc12
Task item: Please choose the item with the lower IC50 value from this pair: I and II The response must carry the label of the picked entry.
Reply: II
(II: 7 nM, I: 1090 nM)

---

# TGT: Ba/F3 cells co-expressing full length rTrkA and mNGF (Rattus norvegicus, UniProt P35739)
# Construct: co-expressing full length rTrkA and mNGF
# Sequence (P35739 33-799): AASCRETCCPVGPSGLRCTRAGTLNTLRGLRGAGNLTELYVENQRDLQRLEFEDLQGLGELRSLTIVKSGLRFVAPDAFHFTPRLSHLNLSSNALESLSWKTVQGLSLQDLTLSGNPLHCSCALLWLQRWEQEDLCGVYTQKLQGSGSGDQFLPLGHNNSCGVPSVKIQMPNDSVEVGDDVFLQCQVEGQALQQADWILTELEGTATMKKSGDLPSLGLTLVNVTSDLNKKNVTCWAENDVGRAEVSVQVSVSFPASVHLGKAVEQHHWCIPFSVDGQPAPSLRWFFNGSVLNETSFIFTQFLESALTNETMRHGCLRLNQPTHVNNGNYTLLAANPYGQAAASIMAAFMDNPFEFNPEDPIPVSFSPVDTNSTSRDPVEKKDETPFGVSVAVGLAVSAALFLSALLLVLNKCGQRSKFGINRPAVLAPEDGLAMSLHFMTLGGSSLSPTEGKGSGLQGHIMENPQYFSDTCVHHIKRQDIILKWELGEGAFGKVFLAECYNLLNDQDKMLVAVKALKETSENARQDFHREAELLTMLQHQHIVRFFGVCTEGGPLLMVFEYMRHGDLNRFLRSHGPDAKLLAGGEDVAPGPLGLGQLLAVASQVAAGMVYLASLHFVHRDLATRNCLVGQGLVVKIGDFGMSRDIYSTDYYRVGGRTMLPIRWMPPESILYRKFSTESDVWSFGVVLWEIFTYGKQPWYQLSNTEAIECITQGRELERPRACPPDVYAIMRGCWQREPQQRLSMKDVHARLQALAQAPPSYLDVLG
# Sequence (P01139 122-241 partner): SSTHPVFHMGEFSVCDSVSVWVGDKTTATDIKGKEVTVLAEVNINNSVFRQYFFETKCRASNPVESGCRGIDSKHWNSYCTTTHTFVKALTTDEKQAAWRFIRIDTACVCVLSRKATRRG
# EXPERIMENT: Ba/F3 cell proliferation, BaF3/TRKA-NGF
# CONDITION DETAILS: inhibition of proliferation, 48 hours, Bright-Glo luminescence
ATTRIBUTE MEASURED: IC50 (nM)

Consider the reported IC50 for these compounds:
| COMPOUND | TGT | UOM | IC50 |
| --- | --- | --- | --- |
| NC(=O)c1cc(F)cc([C@H]2CC(F)(F)CN2c2ccn3ncc(C(N)=O)c3c2)c1 | Ba/F3 cells co-expressing full length rTrkA and mNGF (Rattus norvegicus, UniProt P35739) | nM | 48 |
| NC(=O)c1cnn2ccc(N3CCCC3c3ccccc3C(F)(F)F)cc12 (centres unmarked) | Ba/F3 cells co-expressing full length rTrkA and mNGF (Rattus norvegicus, UniProt P35739) | nM | 341 |
| N#C[C@H]1C[C@H](c2cccc(F)c2)N(c2ccn3ncc(C(N)=O)c3c2)C1 | Ba/F3 cells co-expressing full length rTrkA and mNGF (Rattus norvegicus, UniProt P35739) | nM | 58 |
| CC(C)NC(=O)c1ccc(F)cc1C1CC(F)(F)CN1c1ccn2ncc(C(N)=O)c2c1 (centres unmarked) | Ba/F3 cells co-expressing full length rTrkA and mNGF (Rattus norvegicus, UniProt P35739) | nM | 7 |
| NC(=O)c1cnn2ccc(N3CCCCC3c3cccc(F)c3)cc12 (centres unmarked) | Ba/F3 cells co-expressing full length rTrkA and mNGF (Rattus norvegicus, UniProt P35739) | nM | 97 |

(P) O=C(O)c1cnn2ccc(N3C[C@@H](F)C[C@@H]3c3cccc(F)c3)cc12
(Q) NC(=O)c1cnn2ccc(N3C[C@@H](C(N)=O)C[C@@H]3c3cccc(F)c3)cc12
(R) O=C(O)c1cnn2ccc(N3CC(F)(F)C[C@@H]3c3cccc(F)c3)cc12
Task item: Could you please order the items by IC50, going from the lowest number to the highest? Please write the labels in the order that was asked for.
Reply: P, Q, R
(P: 110 nM, Q: 232 nM, R: 666 nM)

---

# TGT: Ba/F3 cells transformed with human Tel-TrkA (Homo sapiens)
# Construct: the other entry of the earlier key: ETV6 (P41212, Transcription factor ETV6)
# Sequence (P04629 510-796 limits assumed): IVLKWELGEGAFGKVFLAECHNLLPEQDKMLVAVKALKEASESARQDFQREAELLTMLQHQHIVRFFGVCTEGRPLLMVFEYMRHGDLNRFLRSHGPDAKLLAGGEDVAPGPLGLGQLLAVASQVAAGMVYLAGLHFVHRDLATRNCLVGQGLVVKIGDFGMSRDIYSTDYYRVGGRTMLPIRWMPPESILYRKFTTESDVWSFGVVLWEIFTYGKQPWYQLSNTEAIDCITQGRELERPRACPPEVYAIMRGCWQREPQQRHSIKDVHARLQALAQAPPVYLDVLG
# EXPERIMENT: Ba/F3 cell proliferation, Ba/F3 Tel-TrkA
# CONDITION DETAILS: inhibition of proliferation, 48 hours, Bright-Glo luminescence; read-out: Ba/F3Tel-TrkA
pIC50: −log10 of the molar value.
ATTRIBUTE MEASURED: pIC50

Consider the reported pIC50 for these compounds:
| COMPOUND | pIC50 |
| --- | --- |
| O=C(O)c1cnn2ccc(N3C[C@@H](F)C[C@@H]3c3cccc(F)c3)cc12 [Example X-3] | 6.83 |
| CCOC(=O)c1cnn2ccc(N3C[C@@H](F)C[C@@H]3c3cc(F)cc(C#N)c3)cc12 [Example X-7] | 9.00 |
| NC(=O)c1cnn2ccc(N3CCCC3c3ccccc3C(F)(F)F)cc12 (centres unmarked) [Example X-13] | 6.15 |
| O=C(Nc1cnn2ccc(N3C[C@@H](F)C[C@@H]3c3cccc(F)c3)cc12)OCc1ccccc1 [Example X-21] | 6.75 |
| CC(C)(C)NC(=O)c1cnn2ccc(N3C[C@@H](F)C[C@@H]3c3cccc(F)c3)cc12 [Example X-16] | 8.30 |

(a) NC(=O)c1cnn2ccc(N3C[C@@H](F)C[C@@H]3c3cccc(F)c3)cc12 [Example X-5]
(b) N#Cc1cc(F)cc([C@H]2CC(F)(F)CN2c2ccn3ncc(C(N)=O)c3c2)c1 [Example X-11]
Task item: Please choose the item with the lower pIC50 value from this pair: a and b The response must carry the label of the picked entry.
Reply: b

---

# TGT: Ba/F3 cells transformed with human Tel-TrkA (Homo sapiens)
# Construct: the other entry of the earlier key: ETV6 (P41212, Transcription factor ETV6)
# EXPERIMENT: Ba/F3 cell proliferation, Ba/F3 Tel-TrkA
# CONDITION DETAILS: inhibition of proliferation, 48 hours, Bright-Glo luminescence; read-out: Ba/F3Tel-TrkA
pIC50: −log10 of the molar value.
ATTRIBUTE MEASURED: pIC50

| COMPOUND | ATTRIBUTE MEASURED | OBS VALUE |
| --- | --- | --- |
| CC(C)NC(=O)c1ccc(F)cc1C1CC(F)(F)CN1c1ccn2ncc(C(N)=O)c2c1 (stereo not shown) [Example X-18] | pIC50 | 8.15 |
| CCNC(=O)c1cnn2ccc(N3C[C@@H](F)C[C@@H]3c3cccc(F)c3)cc12 [Example X-14] | pIC50 | 8.22 |
